molecular target: AIMP2-DX2 (Homo sapiens); assay: luciferase assay of pGL-DX-2 transfected A549 cells; settings: luciferase activity 4 hours after compound treatment; N.C (DMSO) 20089; lower = inhibition
// classify(record): look up AIMP2-DX2 activity in A549 cells in ranges b0 (below 7000), b1 (7000 to below 10000), b2 (10000 or more)

Lab log: CCCCc1ccc(NC(=O)/C=C\C(=O)O)cc1 — assign AIMP2-DX2 activity in A549 cells category
b2

In plain terms, what class is Cc1ccc(NC(=O)/C=C\C(=O)Nc2ccc(F)cc2C)cc1C ?
b1

Place this compound in its band: COc1cccc(NC(=O)C(C)C(=O)Nc2cc(C)ccc2C)c1 (centres unmarked)
b0

Which class holds O=C(/C=C/C(=O)Nc1ccc(Br)cc1)Nc1ccc(Br)cc1 [compound 22, N1,N4-bis(4-bromophenyl) fumaramide] ?
b0

Which of the defined bands does the recorded AIMP2-DX2 activity in A549 cells of CCOC(=O)C(C)C(=O)Nc1ccc2cc3ccccc3cc2c1 (centres unmarked) sit within?
b0

Class label required: CCOC(=O)C(C)C(=O)Nc1ccc(O)cc1Cl (centres unmarked)
b2

Please classify: Cc1cc(C)cc(NC(=O)/C=C\C(=O)O)c1
b0

Note: place this compound into its band. Item: O=C(/C=C/C(=O)Nc1cc(Cl)cc(Cl)c1)Nc1cc(Cl)cc(Cl)c1 [compound 21, N1,N4-bis(3,5-dichlorophenyl)fumaramide]
b1

Which class does CCOC(=O)CC(=O)Nc1ccc(O)cc1Cl fall in?
b2

Please report the category associated with Cc1ccc(C)c(NC(=O)/C=C\C(=O)O)c1 , nothing else.
b0

====

Kindly state AIMP2-DX2 activity in A549 cells for each of the entries shown.
molecular target: AIMP2-DX2 (Homo sapiens); assay: luciferase assay of pGL-DX-2 transfected A549 cells; conditions: luciferase activity 4 hours after compound treatment; N.C (DMSO) 20089; lower = inhibition
Output spec: single numeric token, no unit.

Annotate the compound COc1cccc(NC(=O)C(C)C(=O)Nc2cc(C)cc(C)c2)c1 (stereo not shown) [compound 30] with its measured AIMP2-DX2 activity in A549 cells.
7291

Identify measured AIMP2-DX2 activity in A549 cells corresponding to Cc1cc(C)cc(NC(=O)/C=C\C(=O)Nc2ccc(C)c(C)c2)c1 [compound 15]
6981

Tell us which AIMP2-DX2 activity in A549 cells value is on record for Cc1ccc(NC(=O)/C=C/C(=O)Nc2ccc(C)c(C)c2)cc1C [compound 1, N1,N4-bis(3,4-dimethylphenyl)fumaramide]
14179

State its AIMP2-DX2 activity in A549 cells for this compound: Cc1cc(Cl)cc(Cl)c1NC(=O)/C=C\C(=O)O [compound 14]
240

====

What AIMP2-DX2 activity in H460 cells was measured for each of the following?
Biological target: AIMP2-DX2 (Homo sapiens, UniProt Q13155)
Sequence (Q13155 1-251 isoform Q13155-2): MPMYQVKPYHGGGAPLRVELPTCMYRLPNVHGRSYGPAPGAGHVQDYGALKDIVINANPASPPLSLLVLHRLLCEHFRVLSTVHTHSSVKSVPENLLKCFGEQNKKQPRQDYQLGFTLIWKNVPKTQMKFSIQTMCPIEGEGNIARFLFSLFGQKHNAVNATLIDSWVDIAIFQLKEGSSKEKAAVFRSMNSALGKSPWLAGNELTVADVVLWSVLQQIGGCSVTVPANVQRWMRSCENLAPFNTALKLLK
Experiment: luciferase assay of pGL-DX-2 transfected H460 cells
Conditions: luciferase activity 4 hours after compound treatment; N.C (DMSO) 8627; lower = inhibition
Reply with the value as a number alone.

State its AIMP2-DX2 activity in H460 cells for this compound: Cc1ccc(NC(=O)/C=C/C(=O)Nc2ccc(C)c(F)c2)cc1F
7094

Supply AIMP2-DX2 activity in H460 cells value. Item: Cc1ccc(C)c(NC(=O)/C=C\C(=O)O)c1
7648

Tell me its AIMP2-DX2 activity in H460 cells given CCOC(=O)C(C)C(=O)Nc1ccc(O)cc1Cl (stereo not drawn) as the entry.
5403

Give reported AIMP2-DX2 activity in H460 cells value for Cc1cc(Cl)cc(Cl)c1NC(=O)/C=C\C(=O)O
230

For the compound Cc1cccc(NC(=O)/C=C\C(=O)Nc2cccc(C)c2)c1 [compound 4, N1,N4-di-m-tolylmaleamide] , give its measured AIMP2-DX2 activity in H460 cells value.
8189

Using the record for Cc1ccc(NC(=O)/C=C\C(=O)Nc2ccc(F)cc2)cc1F , state its measured AIMP2-DX2 activity in H460 cells.
6428

Identify the reported AIMP2-DX2 activity in H460 cells for the following entry. O=C(O)/C=C\C(=O)Nc1ccc(F)cc1
7031

# return recorded AIMP2-DX2 activity in H460 cells for input Cc1ccc(NC(=O)/C=C\C(=O)Nc2ccc(F)cc2C)cc1C
7427

Let me know recorded AIMP2-DX2 activity in H460 cells for CCCCc1ccc(NC(=O)/C=C\C(=O)O)cc1 , thanks.
8045

Annotate the compound Cc1ccc(NC(=O)/C=C/C(=O)Nc2ccc(C)c(C)c2)cc1C [compound 1, N1,N4-bis(3,4-dimethylphenyl)fumaramide] with its measured AIMP2-DX2 activity in H460 cells.
7101

Determine from records and report AIMP2-DX2 activity in H460 cells for Cc1cc(C)cc(NC(=O)/C=C\C(=O)Nc2ccc(C)c(C)c2)c1
8621

Supply recorded AIMP2-DX2 activity in H460 cells for Cc1cccc(NC(=O)/C=C/C(=O)Nc2cccc(C)c2)c1 [compound 2, N1,N4-di-m-tolylfumaramide] here.
7292

Give the reported AIMP2-DX2 activity in H460 cells for this compound. Cc1cc(F)ccc1NC(=O)/C=C\C(=O)Nc1ccc(F)cc1C
6029

Give me measured AIMP2-DX2 activity in H460 cells, please, for this compound: CCOC(=O)C(C)C(=O)Nc1ccc2cc3ccccc3cc2c1 (stereo not drawn)
6346

Indicate the recorded AIMP2-DX2 activity in H460 cells value for this compound: Cc1ccc(C)c(NC(=O)/C=C\C(=O)Nc2ccc(C)c(C)c2)c1
7749

Let me know recorded AIMP2-DX2 activity in H460 cells for Cc1ccc(NC(=O)/C=C\C(=O)Nc2cc(Cl)cc(Cl)c2)cc1C , thanks.
5019

Determine from records and report AIMP2-DX2 activity in H460 cells for Cc1ccc(NC(=O)/C=C\C(=O)O)cc1F
7639

Quickly give me recorded AIMP2-DX2 activity in H460 cells for CCc1cccc(NC(=O)/C=C\C(=O)Nc2ccc(F)cc2)c1
3715

Specify measured AIMP2-DX2 activity in H460 cells for O=C(O)/C=C\C(=O)Nc1cc(Cl)cc(Cl)c1 .
7855

Output AIMP2-DX2 activity in H460 cells of COc1cccc(NC(=O)/C=C\C(=O)Nc2ccc(F)cc2)c1
3246

Answer with the recorded AIMP2-DX2 activity in H460 cells of Cc1ccc(NC(=O)/C=C\C(=O)Nc2ccc(C)c(F)c2)cc1C only.
8901

Fill in AIMP2-DX2 activity in H460 cells for record Cc1cccc(NC(=O)/C=C\C(=O)O)c1
7143

State, in one line, measured AIMP2-DX2 activity in H460 cells of O=C(/C=C/C(=O)Nc1cc(Cl)cc(Cl)c1)Nc1cc(Cl)cc(Cl)c1 [compound 21, N1,N4-bis(3,5-dichlorophenyl)fumaramide]
6061

Identify the reported AIMP2-DX2 activity in H460 cells for the following entry. O=C(/C=C/C(=O)Nc1ccc(Cl)c(Cl)c1)Nc1ccc(Cl)c(Cl)c1 [compound 23, N1,N4-bis(3,4-dichlorophenyl)fumaramide]
6391

Supply AIMP2-DX2 activity in H460 cells value. Item: O=C(/C=C/C(=O)Nc1ccc(Br)cc1)Nc1ccc(Br)cc1 [compound 22, N1,N4-bis(4-bromophenyl) fumaramide]
6377

// fetch AIMP2-DX2 activity in H460 cells given entry CCCCc1cccc(NC(=O)/C=C\C(=O)Nc2ccc(C)c(C)c2)c1
7511

Output AIMP2-DX2 activity in H460 cells of CCOC(=O)CC(=O)Nc1ccc(O)cc1Cl
4848

Input COc1ccc(NC(=O)/C=C\C(=O)Nc2ccc(OC)cc2)cc1 [compound 25, N1,N4-bis(4-methoxyphenyl) maleamide] , output reported AIMP2-DX2 activity in H460 cells.
6085

For the compound Cc1cccc(NC(=O)/C=C\C(=O)Nc2ccc(F)cc2)c1 , give its reported AIMP2-DX2 activity in H460 cells.
5916

Quick one: give measured AIMP2-DX2 activity in H460 cells for COc1cccc(NC(=O)C(C)C(=O)Nc2cc(C)cc(C)c2)c1 (stereo not drawn)
7167

Please indicate AIMP2-DX2 activity in H460 cells recorded for Cc1cc(C)cc(NC(=O)/C=C\C(=O)O)c1
7064

Tell me its AIMP2-DX2 activity in H460 cells given COc1cccc(NC(=O)C(C)C(=O)Nc2cc(C)ccc2C)c1 (stereo not drawn) as the entry.
7722

# return recorded AIMP2-DX2 activity in H460 cells for input Cc1ccc(NC(=O)/C=C\C(=O)Nc2ccc(Br)cc2)cc1C
5718
